- Target: Replicase polyprotein 1ab (Severe acute respiratory syndrome coronavirus 2, UniProt P0DTD1)
Measured Ki determines class: bottom = under 0.7 nM, middle = from 0.7 nM up to 4 nM, top = 4 nM and over

// below: answered compounds
{"Compound": "COC(=O)N[C@H](C(=O)N1C[C@H](C(F)(F)F)C[C@H]1C(=O)N[C@H](C#N)C[C@@H]1CCCNC1=O)C(C)C", "Label class": "middle"}
{"Compound": "CC(C)(C)[C@H](NC(=O)C(F)(F)F)C(=O)N1C[C@H](C(F)(F)F)C[C@H]1C(=O)N[C@H](C#N)C[C@@H]1CCNC1=O", "Label class": "top"}
{"Compound": "COC(=O)N[C@H](C(=O)N1C[C@H](OC(F)(F)F)C[C@H]1C(=O)N[C@H](C#N)C[C@@H]1CCNC1=O)C(C)(C)C", "Label class": "bottom"}
{"Compound": "COC(=O)N[C@H](C(=O)N1C[C@H](C(F)(F)F)C[C@H]1C(=O)N[C@H](C#N)C[C@@H]1CCNC1=O)C(C)C", "Label class": "top"}
{"Compound": "COC(=O)N[C@H](C(=O)N1C[C@H](C(F)(F)F)C[C@H]1C(=O)N[C@H](C#N)C[C@@H]1CCCNC1=O)C(C)(C)C", "Label class": "bottom"}
{"Compound": "CC(C)(C)[C@H](NC(=O)C(F)(F)F)C(=O)N1C[C@H](OC(F)F)C[C@H]1C(=O)N[C@H](C#N)C[C@@H]1CCNC1=O", "Label class": "middle"}
{"Compound": "COC(=O)N[C@H](C(=O)N1C[C@H](C(F)(F)F)C[C@H]1C(=O)N[C@H](C#N)C[C@@H]1CC(O)NC1=O)C(C)(C)C (some centres undefined)", "Label class": "top"}

Please find the next compound below.
Q. Looking at COC(=O)N[C@H](C(=O)N1C[C@H](OC(F)F)C[C@H]1C(=O)N[C@H](C#N)C[C@@H]1CCNC1=O)C(C)(C)C , which class would you pick?
A. middle

----------
- Experimental details: Renal clerance in Wistar Hannover rat at 1 mg/kg, iv by LC-MS/MS analysis
- Type: ADME, organism-based
- Test context: in vivo
The entries below are paired with their reported CL renal.
Write it as a number; the unit mL/min/kg goes unstated.

Example entries begin here.
{"Test smiles": "CC(C)(C)[C@H](NC(=O)C(F)(F)F)C(=O)N1C[C@H](OC(F)F)C[C@H]1C(=O)N[C@H](C#N)C[C@@H]1CCNC1=O", "Unit descriptor": "mL/min/kg", "Meas value": 4.5}
{"Test smiles": "COC(=O)N[C@H](C(=O)N1C[C@H](OC(F)(F)F)C[C@H]1C(=O)N[C@H](C#N)C[C@@H]1CCNC1=O)C(C)(C)C", "Unit descriptor": "mL/min/kg", "Meas value": 8.1}

Q. Quote CL renal reported for COC(=O)N[C@H](C(=O)N1C[C@H](C(F)(F)F)C[C@H]1C(=O)N[C@H](C#N)C[C@@H]1CCCNC1=O)C(C)C please.
A. 7.6

----------
- Experimental details: Metabolic stability in human liver microsome assessed as apparent intrinsic clearance in presence of NADPH incubated for 40 mins by LS-MS/MS analysis
- Assay type: ADME
- Test context: microsomes
The entries below are paired with their reported CLH(app).

{"Test smiles": "COC(=O)N[C@H](C(=O)N1C[C@H](OC(F)(F)F)C[C@H]1C(=O)N[C@H](C#N)C[C@@H]1CCNC1=O)C(C)(C)C", "Meas value": "< 7.12 µL/min/mg"}
{"Test smiles": "COC(=O)N[C@H](C(=O)N1C[C@H](OC(F)F)C[C@H]1C(=O)N[C@H](C#N)C[C@@H]1CCNC1=O)C(C)(C)C", "Meas value": "< 7.12 µL/min/mg"}
{"Test smiles": "CC(C)(C)[C@H](NC(=O)C(F)(F)F)C(=O)N1C[C@H](OC(F)(F)F)C[C@H]1C(=O)N[C@H](C#N)C[C@@H]1CCNC1=O", "Meas value": "< 9.42 µL/min/mg"}
{"Test smiles": "CNC(=O)N[C@H](C(=O)N1C[C@H]2[C@@H]([C@H]1C(=O)N[C@H](C#N)C[C@@H]1CCNC1=O)C2(C)C)C(C)(C)C", "Meas value": "< 7.12 µL/min/mg"}
{"Test smiles": "COC(=O)N[C@H](C(=O)N1C[C@H](C(F)(F)F)C[C@H]1C(=O)N[C@H](C#N)C[C@@H]1CCCNC1=O)C(C)(C)C", "Meas value": "9.5 µL/min/mg"}

Below: the item to evaluate.
Q. Quote CLH(app) reported for CC(C)(C)[C@H](NC(=O)C(F)(F)F)C(=O)N1C[C@H](OC(F)F)C[C@H]1C(=O)N[C@H](C#N)C[C@@H]1CCNC1=O please.
A. < 7.12 µL/min/mg
